- Test Target: Biotinylated CD33 protein (UniProt P20138)
- Sequence (P20138 18-259 limits assumed): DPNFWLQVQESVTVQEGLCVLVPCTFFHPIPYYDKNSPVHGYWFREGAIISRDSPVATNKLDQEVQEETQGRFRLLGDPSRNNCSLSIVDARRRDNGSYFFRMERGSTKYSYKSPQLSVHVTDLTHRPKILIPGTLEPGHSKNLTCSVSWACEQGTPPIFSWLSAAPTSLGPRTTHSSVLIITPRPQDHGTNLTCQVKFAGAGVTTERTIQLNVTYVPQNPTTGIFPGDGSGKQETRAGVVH
- Protocol Notes: Octet competition on biotinylated CD33; competitor 429
Item-by-item account of Octet signal
Write the number on its own, no unit after it.

These solved cases illustrate the format of a correct answer.
-- ask Any idea what its Octet signal is? The binder is sdCD33_11 (VHH, sdAb from a naive llama phage library; also called 430; sdAb430) VHH: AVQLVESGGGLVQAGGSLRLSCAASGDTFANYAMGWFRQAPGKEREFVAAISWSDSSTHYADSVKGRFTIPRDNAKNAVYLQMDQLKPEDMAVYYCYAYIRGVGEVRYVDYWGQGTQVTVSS
-- reply -0.29

-- ask Param item = sdCD33_6 (VHH, sdAb from a naive llama phage library; also called 416; sdAb416) VHH: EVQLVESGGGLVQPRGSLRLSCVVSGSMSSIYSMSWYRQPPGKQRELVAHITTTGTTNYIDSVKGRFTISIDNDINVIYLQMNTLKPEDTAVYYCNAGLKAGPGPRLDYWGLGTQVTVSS ; retrieve measured Octet signal.
-- reply 0.261

-- ask Looking for the measured Octet signal of sdCD33_3 (VHH) VHH: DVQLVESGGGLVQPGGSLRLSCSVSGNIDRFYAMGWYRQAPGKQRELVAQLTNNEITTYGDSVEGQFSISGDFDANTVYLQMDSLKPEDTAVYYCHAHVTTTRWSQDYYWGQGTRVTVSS , can you help?
-- reply -0.13

New cases:
-- ask Quick one: Octet signal for sdCD33_9 (VHH, sdAb from a naive llama phage library; also called 426; sdAb426) VHH: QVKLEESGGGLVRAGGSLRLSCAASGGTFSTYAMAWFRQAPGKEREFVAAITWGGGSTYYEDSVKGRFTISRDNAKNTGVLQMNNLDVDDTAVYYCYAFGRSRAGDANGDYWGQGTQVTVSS ?
-- reply 0.0225
